# ASSAYED_SYSTEM: T1, His-tagged PCSK9Δhelix (human, UniProt Q8NBP7 31-152; Q8NBP7 168-692)
# T1 construct: Construct M1-Q692 with engineered TEV site, cut by TEV protease; new N-terminus of the catalytic domain is S-A168; also called His-PCSK9Δhelix
# T1 sequence (Q8NBP7 31-152, stated change not applied, chain 1 of 2): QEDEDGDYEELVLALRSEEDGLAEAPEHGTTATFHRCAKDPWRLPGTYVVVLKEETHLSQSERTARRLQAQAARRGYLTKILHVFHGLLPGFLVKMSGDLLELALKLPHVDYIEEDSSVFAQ
# T1 sequence (Q8NBP7 other isoform, or with tags, fused parts or gaps mutant, chain 2 of 2): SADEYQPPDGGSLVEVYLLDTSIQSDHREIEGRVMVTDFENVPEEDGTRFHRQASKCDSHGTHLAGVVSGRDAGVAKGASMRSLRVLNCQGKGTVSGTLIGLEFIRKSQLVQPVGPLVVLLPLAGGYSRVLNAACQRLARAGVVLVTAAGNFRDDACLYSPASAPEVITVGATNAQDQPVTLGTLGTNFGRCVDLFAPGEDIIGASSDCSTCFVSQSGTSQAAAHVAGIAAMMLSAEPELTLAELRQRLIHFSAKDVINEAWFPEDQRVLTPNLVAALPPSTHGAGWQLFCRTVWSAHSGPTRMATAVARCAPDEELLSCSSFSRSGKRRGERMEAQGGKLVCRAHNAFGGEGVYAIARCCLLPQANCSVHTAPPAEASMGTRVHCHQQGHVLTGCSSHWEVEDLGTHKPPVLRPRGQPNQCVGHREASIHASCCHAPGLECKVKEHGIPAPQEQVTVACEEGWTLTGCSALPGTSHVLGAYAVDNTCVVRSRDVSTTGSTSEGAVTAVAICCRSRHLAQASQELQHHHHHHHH
# EXPERIMENT_NOTES: TR-FRET competition; His-PCSK9Δhelix, competitor Ab20
Square brackets hold non-standard residues; d marks the D form. Ends that are not written are not given here. hArg = N=C(N)NCCCC[C@H](N)C(=O)O
OBSERVATION_TYPE: pIC50
Remember, pIC50 is on a log scale: it is -log10 of the molar concentration.

## Input Looking for the measured pIC50 of WNLV[hArg]IGLLR (also: further groups not given here, Structure printed only as a drawing) [Compound 214] , can you help?
## Output 6.68

## Input Looking for the measured pIC50 of WNLV[hArg]IGLLR (also: end groups and other groups only in drawing, Structure printed only as a drawing) [Compound 202] , can you help?
## Output 6.47

## Input Looking for the measured pIC50 of WNLV[hArg]IGLLR (also: further groups not given here, Structure printed only as a drawing) [Compound 210] , can you help?
## Output 6.08
